target-of-assay: HCV NS5B (Hepatitis C virus genotype 1b, UniProt Q9WMX2)
Construct: The protein was expressed with an 18 amino acid C-terminal truncation to enhance the solubility; made in house; host or cells: E. coli BL21(DE3)
Sequence (Q9WMX2 2420-2992): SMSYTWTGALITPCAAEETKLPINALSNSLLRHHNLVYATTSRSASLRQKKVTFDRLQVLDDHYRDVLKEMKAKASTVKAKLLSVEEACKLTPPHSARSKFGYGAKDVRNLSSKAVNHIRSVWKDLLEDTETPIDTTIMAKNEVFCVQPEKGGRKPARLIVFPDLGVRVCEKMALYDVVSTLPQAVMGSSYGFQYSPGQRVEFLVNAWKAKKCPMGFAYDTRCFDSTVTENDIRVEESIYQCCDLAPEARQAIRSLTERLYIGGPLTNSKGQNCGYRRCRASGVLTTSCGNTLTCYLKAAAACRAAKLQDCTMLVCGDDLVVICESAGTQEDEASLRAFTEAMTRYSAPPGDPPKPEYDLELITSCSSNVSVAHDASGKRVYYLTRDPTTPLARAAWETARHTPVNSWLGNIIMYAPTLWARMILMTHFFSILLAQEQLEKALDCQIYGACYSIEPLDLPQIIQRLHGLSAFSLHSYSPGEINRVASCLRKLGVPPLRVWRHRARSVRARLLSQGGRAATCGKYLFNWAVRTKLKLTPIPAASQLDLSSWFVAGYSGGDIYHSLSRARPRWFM
experiment-summary: Modified HCV NS5B RdRp enzyme assay (preincubation protocol)
Format: biochemical
pIC50: −log10 of the molar value.
reported-endpoint: pIC50

Lookup: Would you kindly share the measured pIC50 for COc1ccc2c(c1)C1CC1(CC(=O)N1C3CCC1CN(C)C3)Cn1c-2c(C2CCCCC2)c2ccc(C(=O)NS(=O)(=O)N(C)C)cc21 (stereo not shown) ?
Found: < 6.92
